// data source = PubChem BioAssay

# Tested on: TRPC4 beta (transient receptor potential cation channel C4), mouse
# measurementProtocol: potentiation of DAMGO EC20 TRPC4 response – cell-based, Fluo-4, HEK293 TRPC4beta/mu-opioid, confirmation (AID 2555)
# conditionsUsed: DAMGO EC20, Fluo-4 calcium flux, at 10 µM
The source made the active and inactive calls.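 How the source made its calls: active means primary screen hit whose calcium fluorescence ratio, in both repeats, exceeds the weak agonist control mean by 3 SD; inactive means the rest.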
Outcomes: active, inactive

>>> label("Cc1ccc(C(=O)NNC(=S)NC(=O)COc2ccccc2)cc1")
"inactive"
>>> label("Cc1[nH]nc(-c2ccc(O)cc2O)c1-c1ccc(Cl)cc1")
"inactive"
>>> label("CCCn1c(N2CCN(S(=O)(=O)Cc3ccccc3)CC2)nc2ccccc21")
"active"
>>> label("NN=C1c2cc([N+](=O)[O-])ccc2-c2ccc([N+](=O)[O-])cc21")
"inactive"
>>> label("CC(C)CN(C(=O)COC(=O)CCC(=O)c1ccc(Cl)cc1)c1c(N)n(Cc2ccccc2)c(=O)[nH]c1=O")
"inactive"
>>> label("Cc1cc(C)c(C)c(OCCCOc2cccc3cccnc23)c1")
"inactive"
>>> label("CC(C)(C)NCc1cc(Cl)ccc1OCc1cccs1")
"inactive"
>>> label("CCCN1CCN(C(=O)Cn2c(=O)oc3cc(S(=O)(=O)NCc4ccccc4)ccc32)CC1")
"inactive"
>>> label("O=c1c2ccccc2oc2nc(C3CCCCC3)n(Cc3ccco3)c(=O)c12")
"active"
>>> label("O=C(c1coc2ccc(O)c(CN3CCOCC3)c12)C1CC1")
"inactive"

---

# testedOn: Short transient receptor potential channel 4 (Mus musculus)
# measurementProtocol: blockers of DAMGO-evoked TRPC4 calcium flux – cell-based, second round, Fluo4, HEK293 TRPC4beta/mu-opioid, 1 µM, confirmation (AID 2637);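 on inhibition: percent of integrated ratio relative to wells lacking test compound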
# conditionsUsed: at 1 µM; active compounds read high
Activity calls are given as the source filed them.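 The calls were made as follows: active = calcium signal ratio cut to more than 3 SD under the fully stimulated control mean yet still positive, in both repeats and the primary screen; inactive = the rest.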
measureName: inhibition

>>> result("CCCn1c(NCc2ccc(C)o2)nc2ccccc21")
"inactive"
>>> result("Cc1ncsc1CCOC(=O)c1cccc([N+](=O)[O-])c1")
"49% (active)"
>>> result("Cc1[nH]c2ccc(C(=O)OC(C)C(=O)N(C)c3ccccc3)cc2c1C (configuration not stated)")
"inactive"
>>> result("CCCc1noc2c1/C(=N\\O)CC(CC(C)SCC)C2 (configuration not stated)")
"inactive"
>>> result("O=C(NC1CCCCC1)N1CCN(C(c2ccccc2)c2ccccc2)CC1")
"inactive"
>>> result("Cc1cc(C(C)(C)C)c(O)c(C)c1CC1=NCCN1")
"inactive"
>>> result("CCn1c2ccccc2c2cc(/C=N/NC(=O)c3cc(O)cc(O)c3)ccc21")
"43% (active)"
>>> result("COCCn1c(SCC(=O)c2ccccc2)nc2ccccc2c1=O")
"48% (active)"
>>> result("Cc1c(C(=O)NCCc2ccccc2)oc2ccccc12")
"inactive"
>>> result("CC(=O)C1=C(O)C(=O)N(Cc2ccccc2)C1c1ccc([N+](=O)[O-])cc1 (configuration not stated)")
"61% (active)"
>>> result("O=C(CN1CCCCC1)Nc1ccccc1Oc1ccccc1")
"inactive"
>>> result("c1ccc(-c2cnc(SCCN3CCOCC3)n2CC2CCCO2)cc1 (configuration not stated)")
"inactive"
>>> result("OC(c1ccccc1)(c1ccccc1)C1CCN(C(=S)NC2CCCC2)CC1")
"inactive"
>>> result("COc1ccc(C(CNc2ccc(C(F)(F)F)cn2)N(C)C)cc1OC (configuration not stated)")
"69% (active)"
>>> result("N/C(Cc1cccc2ccccc12)=N\\OC(=O)c1cccs1")
"55% (active)"
>>> result("CCOC(=O)C1(CCOC)CCN(Cc2ccccc2-c2ccco2)CC1")
"inactive"
>>> result("COc1ccc(CC(=O)NCC(c2ccc(OC)cc2)N(C)C)cc1 (configuration not stated)")
"inactive"
>>> result("COc1cccc(C(CNC(=O)C(c2ccccc2)c2ccccc2)N(C)C)c1 (configuration not stated)")
"inactive"
>>> result("CN(CCc1ccccn1)C1CC(=O)N(c2ccc(Cl)cc2)C1=O (configuration not stated)")
"inactive"
>>> result("Cc1cc(OCc2cc(C(=O)NCCN3CCCCC3CO)no2)cc(C)c1Cl (configuration not stated)")
"inactive"
>>> result("COc1ccc(C(=O)OCCc2sc[n+](CC(=O)c3ccccc3)c2C)cc1")
"inactive"
>>> result("Cc1cc(/C=N/NC(=O)c2cccc([N+](=O)[O-])c2)c(C)n1-c1ccc(Cl)cc1Cl")
"58% (active)"
>>> result("CC1CCC2C(C1)c1sc(=O)[nH]c1SC2(C)C (configuration not stated)")
"inactive"
>>> result("COc1ccccc1C(=O)NNC1=C(C(=O)C(F)(F)F)CCC1")
"inactive"
>>> result("CC1CC(C)CN(CCCNC(=O)c2ccc(N3CCCC3=O)cc2)C1 (configuration not stated)")
"inactive"
>>> result("NC(=O)NCCN1CCN(c2ncc(C(F)(F)F)cc2Cl)CC1")
"inactive"
>>> result("Cc1cc(C)nc(Nc2nc(=O)c3ccccc3s2)n1")
"inactive"
>>> result("Cc1ccc(/C=N/NC(=S)NC2CCCCC2)o1")
"inactive"
>>> result("OCCNc1nc(NCc2ccccc2)c2ccccc2n1")
"61% (active)"
>>> result("NC(=O)c1ccc(N2CCN(c3ncc(C(F)(F)F)cc3Cl)CC2)cc1")
"inactive"
>>> result("CN(C)C(CNC(=O)Cc1ccc([N+](=O)[O-])cc1)c1ccccc1 (configuration not stated)")
"inactive"
>>> result("CNc1nc(SCc2ccccc2Cl)nc2c1CCCC2")
"inactive"
>>> result("COc1cccc(NC(=O)CCC(=O)N2CC(C)Oc3ccc(C)cc32)c1 (configuration not stated)")
"inactive"
>>> result("CN1CCN(c2ccc(NC(=O)c3ccc(Br)o3)cc2)CC1")
"46% (active)"
>>> result("Cc1cccc(NC(=S)NCC(c2ccccc2)N(C)C)c1 (configuration not stated)")
"inactive"
>>> result("O=C(O)c1ccc(Cl)cc1Nc1nc2cc(Cl)ccc2o1")
"inactive"
>>> result("CN(C)CCCn1c(=O)n(CCc2ccccc2)c(=O)c2c3c(sc21)CCCCC3")
"inactive"
>>> result("CC#CC[N+](C)(C)CCCCCCCCCCCC")
"55% (active)"
>>> result("COc1cc(=O)n2c(-c3ccccc3)csc2n1")
"inactive"
>>> result("CN1CCN(Cc2nc3ccccc3n2C)CC1CCO (configuration not stated)")
"inactive"
>>> result("CC1=C(C(=O)NCCN2CCN(C)CC2)C2(CCC(C)CC2)OC1=O (configuration not stated)")
"inactive"
>>> result("O=C(c1ccccc1F)N1CCN(c2ccc([N+](=O)[O-])cc2-n2cccc2)CC1")
"inactive"
>>> result("O=C1/C(=C/c2ccccc2Cl)SC(=S)N1CCCC(=O)N(CCO)c1ccccc1")
"50% (active)"
>>> result("Cc1ccc(/C=C/C(=O)NC2CCCCCCC2)o1")
"inactive"
>>> result("O=C(Nc1ccccc1Oc1cccnc1)C1CCCN(Cc2cccc(Cl)c2)C1 (configuration not stated)")
"inactive"
>>> result("Cc1cc(C)cc(NC(=O)c2nnn(Cc3cc(C)ccc3C)c2N)c1")
"inactive"
>>> result("Cc1ccc(O)c(CNc2nc3ccccc3[nH]2)c1")
"76% (active)"

---

# measurementProtocol: nonspecific potentiation of DAMGO calcium response – cell-based, HEK293 mu-opioid receptor line, counter-screen for TRPC4 allosteric potentiator project, confirmation (AID 449724);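 further: HEK293 cells carrying mu-opioid receptor only with no TRPC4 channel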
# conditionsUsed: HEK293 mu-opioid receptor cells, Fluo-4 calcium flux, at 10 µM, compound added before EC20 DAMGO stimulus; active compounds read high
The source made the active and inactive calls.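 How the source made its calls: active means calcium signal rise more than 3 SD above the low-dose agonist control mean, in both duplicate plates and the primary screen; inactive means the rest.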
measureName: activation

>>> result("Cc1ccc(O)c(Sc2cc(C)ccc2O)c1")
"inactive"
>>> result("CCc1cc(=O)oc2c(CNCc3ccccc3F)c(O)c(Cl)cc12")
"inactive"
>>> result("CCc1nc2ccccc2n1Cc1ccccc1F")
"inactive"
>>> result("COc1ccc(C)c(NC(=O)NCCc2cnc[nH]2)c1")
"inactive"
>>> result("CCN(CC)Cc1cc(CCNC(=O)c2ccc(Cl)cc2)ccc1O")
"inactive"
>>> result("COc1nc(N=C(N)N)nc2ccc(C)cc12")
"inactive"
>>> result("COc1ccc(C2NC(C(=O)O)Cc3c2[nH]c2ccccc32)cc1CN1CCN(c2ccc(F)cc2)CC1 (configuration not stated)")
"inactive"
>>> result("CC(=O)Oc1c(C)cc(O)c2ccccc12")
"inactive"
>>> result("O=[N+]([O-])c1ccc(CN2CCN(c3nc4ccccc4s3)CC2)cc1")
"inactive"
>>> result("CCn1c(=O)c(C(=O)NNC(=O)c2ccccc2F)c(O)c2ccccc21")
"inactive"
>>> result("O=c1[nH][nH]c(-c2ccccc2)c1C=Nc1ccc(Cl)cc1")
"inactive"
>>> result("OCc1ccccc1CNCc1ccccc1")
"inactive"

---

# Tested on: TRPC4 beta (transient receptor potential cation channel C4), mouse
# measurementProtocol: potentiation of DAMGO EC20 TRPC4 response – cell-based, Fluo-4, HEK293 TRPC4beta/mu-opioid, confirmation (AID 2555)
# conditionsUsed: DAMGO EC20, Fluo-4 calcium flux, at 10 µM
Activity calls are given as the source filed them.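 How the source made its calls: active means primary screen hit whose calcium fluorescence ratio, in both repeats, exceeds the weak agonist control mean by 3 SD; inactive means the rest.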
Outcomes: active, inactive

>>> label("CSc1nnc(Cc2sc(-c3ccccc3)nc2-c2ccccc2)o1")
"inactive"
>>> label("Cc1nn(-c2ccccc2)c2nc(-c3ccccc3)cc(C(=O)N3CCOCC3)c12")
"active"
>>> label("CNC(=S)NNC(=O)c1cccn(Cc2cccc(C(F)(F)F)c2)c1=O")
"active"
>>> label("CCOc1ccc(NC(=O)c2c[nH]n3c(=O)cc(C4CCN(C(=O)OC(C)(C)C)CC4)nc23)cc1")
"inactive"
>>> label("CN(C)c1ccc(/C=C/C(=O)c2c(O)c3ccccc3oc2=O)cc1")
"inactive"
